# assayName: Binding affinity to chimpanzee P2Y14 assessed as inhibition constant
# Design: species or system Pan troglodytes
readout: pKi
One number for each entry, as −log10 of the molar value.

Lookup: Entry under review: "O=C(O)c1cc(-c2ccc(C3CCNCC3)cc2)c2ccc(-c3ccc(C(F)(F)F)cc3)cc2c1" . Reported pKi?
Found: 8.72

----------
# assayName: Antagonist activity at human pA2 by FLIPR assay
readout: pIC50
Answers are plain numbers, as −log10 of the molar value.

Lookup: Need pIC50 of "CC(C)(C)CN1CCC2(CC1)CN(c1ccccc1NC(=O)Nc1nc3ccc(Cl)nc3s1)c1c(O)cc(F)c(-c3ccc(F)cc3)c12" , thanks.
Found: 6.74

----------
# assayedSystem: P2Y purinoceptor 6 (Homo sapiens)
# Sequence (Q15077 whole entry): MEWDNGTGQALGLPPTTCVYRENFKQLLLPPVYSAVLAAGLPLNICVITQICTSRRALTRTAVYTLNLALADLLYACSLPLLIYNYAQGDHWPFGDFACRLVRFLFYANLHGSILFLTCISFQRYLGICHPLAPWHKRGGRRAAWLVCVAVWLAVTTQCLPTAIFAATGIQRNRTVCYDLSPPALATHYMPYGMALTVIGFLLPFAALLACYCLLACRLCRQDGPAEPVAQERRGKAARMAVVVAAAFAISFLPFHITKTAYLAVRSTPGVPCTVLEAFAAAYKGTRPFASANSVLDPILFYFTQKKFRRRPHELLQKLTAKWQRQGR
readout: pIC50
One number for each entry, as −log10 of the molar value.

Lookup: Lab request: please report pIC50 under test system P2Y purinoceptor 6 (Homo sapiens) for "S=C=Nc1cccc(NC(=S)NCCCCNC(=S)Nc2cccc(N=C=S)c2)c1"
Found: 7.43

----------
Please respond with reported pIC50 for every item in the list.
# assayedSystem: UniProtKB P47900
# assayName: Agonist activity at human P2Y1
Numbers only, as −log10 of the molar value.

chemicalStructure | pIC50
CNc1nc(Cl)nc2c1ncn2CCC(COP(=O)(O)O)COP(=O)(O)O | 6.08

// below: pIC50 requested for another compound
Lookup: Entry under review: "Nc1ncnc2c1ncn2[C@H]1C[C@H](OP(=O)(O)O)[C@@H](COP(=O)(O)O)O1" . Reported pIC50?
Found: 5.24

----------
# assayName: Clearance in rat at 30 mg/kg, po
# Type: ADME, organism-based
# conditionInfo: in vivo
readout: CL/F
Kindly report the value followed by its unit.

Lookup: Looking for the measured CL/F of "CC(C)(C)c1ccccc1Oc1ncccc1NC(=O)Nc1ccc(OC(F)(F)F)cc1" , can you help?
Found: 13 mL/min/kg

----------
# assayName: Half life in C57BL/6 mouse 2 mg/kg, iv
# Format: ADME, organism-based
# conditionInfo: in vivo
readout: half-life (h)
Give bare numbers, in h.

Lookup: Name the recorded half-life for "Cc1cc(F)cc(C)c1COc1ccc2c(-c3ccsc3)cc(C(=O)O)cc2c1" .
Found: 2.7

----------
# assayedSystem: P2Y purinoceptor 14 (Rattus norvegicus, UniProt O35881)
# Sequence (O35881 whole entry): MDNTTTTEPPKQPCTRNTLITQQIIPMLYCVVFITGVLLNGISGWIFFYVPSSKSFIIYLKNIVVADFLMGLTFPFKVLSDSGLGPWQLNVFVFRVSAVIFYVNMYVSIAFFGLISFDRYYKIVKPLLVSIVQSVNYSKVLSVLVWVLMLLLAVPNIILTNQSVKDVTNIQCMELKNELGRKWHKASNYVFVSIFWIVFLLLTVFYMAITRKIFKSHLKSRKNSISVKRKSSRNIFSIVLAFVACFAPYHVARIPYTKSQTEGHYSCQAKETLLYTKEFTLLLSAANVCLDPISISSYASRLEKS
# assayName: Antagonist activity at rat P2Y14
readout: EC50 (nM)
Numbers only, in nM.

Lookup: Returns the measured EC50 for the input molecule. Input: O=c1ccn([C@@H]2O[C@H](COP(=O)(O)OP(=O)(O)O)[C@@H](O)[C@H]2O)c(=O)[nH]1 [URIDINE_DIPHOSPHATE]
Found: 350

----------
# assayName: Antagonist activity at ATP gamma S induced mucin in Normal human bronchial epithelial cell
# Format: cell-based
readout: pIC50
Numbers only, as −log10 of the molar value.

Lookup: Please give the measured pIC50 for this compound: "Cc1ccc2c(c1)C=Cc1cc(C)ccc1C2c1cn(Cc2ccc(C(=O)Nc3nnn[nH]3)o2)c(=O)[nH]c1=S"
Found: 6.00

----------
# assayedSystem: P2Y purinoceptor 1 (Homo sapiens, UniProt P47900)
# Sequence (P47900 whole entry): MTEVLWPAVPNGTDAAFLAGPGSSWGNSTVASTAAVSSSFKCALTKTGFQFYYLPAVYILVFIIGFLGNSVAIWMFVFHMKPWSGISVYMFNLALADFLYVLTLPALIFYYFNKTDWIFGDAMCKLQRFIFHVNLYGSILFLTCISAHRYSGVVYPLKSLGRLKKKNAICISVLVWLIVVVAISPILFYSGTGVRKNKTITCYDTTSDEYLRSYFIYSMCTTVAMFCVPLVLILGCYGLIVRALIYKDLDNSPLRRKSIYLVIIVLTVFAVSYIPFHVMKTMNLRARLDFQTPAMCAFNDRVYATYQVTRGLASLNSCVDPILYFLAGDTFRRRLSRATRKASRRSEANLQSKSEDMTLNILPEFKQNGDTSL
# assayName: Agonist activity at human P2Y1
readout: EC50 (µM)
One number for each entry, in µM.

Lookup: What value of EC50 on P2Y purinoceptor 1 (Homo sapiens, UniProt P47900) does "Nc1ncnc2c1ncn2[C@H]1C[C@H](OP(=O)(O)O)[C@@H](COP(=O)(O)O)O1" have?
Found: 6.3

----------
# assayedSystem: P2Y purinoceptor 12 (Homo sapiens, UniProt Q9H244)
# Sequence (Q9H244 whole entry): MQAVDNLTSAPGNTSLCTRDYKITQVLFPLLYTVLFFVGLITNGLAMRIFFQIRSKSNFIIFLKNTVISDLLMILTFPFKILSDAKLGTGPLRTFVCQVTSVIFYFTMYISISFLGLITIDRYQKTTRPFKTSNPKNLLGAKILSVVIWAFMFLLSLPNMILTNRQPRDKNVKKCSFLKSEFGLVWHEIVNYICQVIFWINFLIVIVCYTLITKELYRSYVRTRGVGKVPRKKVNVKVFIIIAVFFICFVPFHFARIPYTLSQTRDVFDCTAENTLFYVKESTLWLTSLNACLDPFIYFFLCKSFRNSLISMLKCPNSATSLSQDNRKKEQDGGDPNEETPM
readout: Ki (nM)
Answers are plain numbers, in nM.

Lookup: Given the entry "CCCSc1nc(N[C@@H]2C[C@H]2c2ccccc2)c2nnn([C@@H]3C[C@H](c4nnn[nH]4)[C@@H](O)[C@H]3O)c2n1" , report its measured Ki.
Found: 2

----------
# assayedSystem: P2Y purinoceptor 1 (Homo sapiens)
# assayName: Inhibition of human P2Y1
readout: IC50

Lookup: I'd like to know its IC50. The molecule in question is "CNc1ncnc2c1ncn2[C@H]1C[C@H](OP(=O)(O)O)[C@@H](COP(=O)(O)O)O1"
Found: 330 nM

----------
# assayName: Volume of distribution at steady state in rat
# Assay type: ADME
# conditionInfo: in vivo, read-out: Vdss
readout: Vd (L/kg)
Answers are plain numbers, in L/kg.

Lookup: Find the recorded Vd belonging to "CC(C)(C)CN1CCC2(CC1)CN(c1ccccc1NC(=O)Nc1nc3ccc(Cl)nc3s1)c1c(O)cc(F)c(-c3ccc(F)cc3)c12" and report it.
Found: 2.1

----------
# assayName: Cmax in mouse measured up to 24 hrs
# Type: ADME
# Design: time < 24 hrs
# conditionInfo: in vivo
readout: Cmax (nM)
One number for each entry, in nM.

Lookup: Given the entry "O=C(O)c1cc(-c2ccc(C3CCNCC3)cc2)c2ccc(-c3ccc(C(F)(F)F)cc3)cc2c1" , report its measured Cmax.
Found: 2280

----------
# assayName: Cmax in rat measured up to 24 hrs
# Type: ADME
# Parameters: time < 24 hrs
# conditionInfo: in vivo
readout: Cmax (nM)
One number for each entry, in nM.

Lookup: // lookup Cmax for "O=C(O)c1cc(-c2ccc(C3CCNCC3)cc2)c2ccc(-c3ccc(C(F)(F)F)cc3)cc2c1"
Found: 680

----------
# assayName: Half life in rat 30 mg/kg, po
# Format: ADME, organism-based
# conditionInfo: in vivo
readout: half-life (h)
One number for each entry, in h.

Lookup: So what does the record say about half-life for "CC(C)(C)c1ccccc1Oc1ncccc1NC(=O)Nc1ccc(OC(F)(F)F)cc1" ?
Found: 1.4

----------
# assayedSystem: P2Y purinoceptor 4 (Homo sapiens, UniProt P51582)
# Sequence (P51582 whole entry): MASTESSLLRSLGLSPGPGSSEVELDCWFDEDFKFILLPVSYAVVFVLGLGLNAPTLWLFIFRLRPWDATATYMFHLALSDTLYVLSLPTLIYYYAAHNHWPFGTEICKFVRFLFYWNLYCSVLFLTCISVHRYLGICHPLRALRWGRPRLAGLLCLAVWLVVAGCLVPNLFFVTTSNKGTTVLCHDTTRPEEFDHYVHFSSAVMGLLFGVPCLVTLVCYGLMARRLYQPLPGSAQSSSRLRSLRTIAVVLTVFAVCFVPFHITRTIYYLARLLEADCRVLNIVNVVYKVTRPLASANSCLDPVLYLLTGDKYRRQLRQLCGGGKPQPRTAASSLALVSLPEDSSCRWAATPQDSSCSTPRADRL
# assayName: Agonist activity at human P2Y4 transfected in human 1321N1 cells
# Format: cell-based
readout: EC50 (µM)
Answers are plain numbers, in µM.

Lookup: Recorded EC50 of O=c1ccn([C@@H]2O[C@H](COP(=O)(O)OP(=O)(O)OP(=O)(O)O)[C@@H](O)[C@H]2O)c(=O)[nH]1 [URIDINE TRIPHOSPHATE] , please.
Found: 0.55

----------
# assayName: Clearance in rat
# Format: ADME
# conditionInfo: in vivo
For each record, write down the corresponding clearance.
Give bare numbers, in mL/min/kg.

Each compound below has a recorded value; state its clearance.
1. Cc1cc(Oc2ccccc2NC(=O)Nc2ccc(OC(F)(F)F)cc2)n(-c2ccccc2Cl)n1
2. CC(C)(C)CN1CCC2(CC1)CN(c1ccccc1NC(=O)Nc1nc3ccc(Cl)nc3s1)c1c(O)cc(F)c(-c3ccc(F)cc3)c12

Found:
81
4

----------
# assayedSystem: P2Y purinoceptor 4 (Homo sapiens)
readout: pEC50
Answers are plain numbers, as −log10 of the molar value.

Lookup: Query for P2Y purinoceptor 4 (Homo sapiens): what pEC50 does the record show for Nc1ncnc2c1ncn2[C@@H]1O[C@H](COP(=O)(O)OP(=O)(O)OP(=O)(O)O)[C@@H](O)[C@H]1O [ADENOSINE TRIPHOSPHATE] ?
Found: 5.21
